biological target: MAPK15 (human) (UniProt Q8TD08); settings: compound 10.0 µM
Sequence (Q8TD08 whole entry, looked up): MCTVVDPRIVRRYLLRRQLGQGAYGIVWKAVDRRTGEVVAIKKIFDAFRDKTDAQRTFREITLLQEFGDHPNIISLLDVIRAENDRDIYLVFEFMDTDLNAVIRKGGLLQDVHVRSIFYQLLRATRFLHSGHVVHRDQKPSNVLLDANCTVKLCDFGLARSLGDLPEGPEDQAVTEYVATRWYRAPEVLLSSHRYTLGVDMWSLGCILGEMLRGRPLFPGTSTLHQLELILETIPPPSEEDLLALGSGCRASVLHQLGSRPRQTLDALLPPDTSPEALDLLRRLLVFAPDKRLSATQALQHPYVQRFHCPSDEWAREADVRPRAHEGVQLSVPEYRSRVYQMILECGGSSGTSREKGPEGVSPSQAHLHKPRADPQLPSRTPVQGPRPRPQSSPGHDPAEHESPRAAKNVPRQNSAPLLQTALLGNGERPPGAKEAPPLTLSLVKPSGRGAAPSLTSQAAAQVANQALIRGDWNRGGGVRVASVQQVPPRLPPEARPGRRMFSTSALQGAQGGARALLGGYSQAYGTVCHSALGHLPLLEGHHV
As shown below, each of these compounds has a reported per cent of control value.
reported.metric: per cent of control (%)

>>> endpoint_result("COc1ccc(-c2ccc3c(N4CCOCC4)nc(N4C[C@@H](C)O[C@@H](C)C4)nc3n2)cc1CO")
92
>>> endpoint_result("CCC(=O)N1CCN(c2ccc(-n3c(=O)ccc4cnc5ccc(-c6cnc7ccccc7c6)cc5c43)cc2C(F)(F)F)CC1")
46
>>> endpoint_result("COC(=O)Nc1ccc(-c2nc(N3CCOCC3)c3cnn(C4CCN(C(=O)OC)CC4)c3n2)cc1")
98
>>> endpoint_result("CC(C)n1nc(-c2cc3cc(O)ccc3[nH]2)c2c(N)ncnc21")
6

* * *

target: MAPK1 (human) (UniProt P28482); settings: compound 10.0 µM
Sequence (P28482 whole entry, looked up): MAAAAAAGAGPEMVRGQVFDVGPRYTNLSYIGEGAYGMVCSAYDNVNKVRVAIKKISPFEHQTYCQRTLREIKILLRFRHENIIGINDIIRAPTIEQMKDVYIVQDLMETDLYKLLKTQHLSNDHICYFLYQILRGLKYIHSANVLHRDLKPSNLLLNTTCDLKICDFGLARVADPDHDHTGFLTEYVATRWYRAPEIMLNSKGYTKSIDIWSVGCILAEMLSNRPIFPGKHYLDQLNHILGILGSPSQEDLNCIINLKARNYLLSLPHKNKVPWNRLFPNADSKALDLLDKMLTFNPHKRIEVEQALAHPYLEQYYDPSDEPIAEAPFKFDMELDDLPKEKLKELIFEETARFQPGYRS
As shown below, each of these compounds has a reported per cent of control value.
reported.metric: per cent of control (%)

>>> endpoint_result("COC(=O)Nc1ccc(-c2nc(N3CCOCC3)c3cnn(C4CCN(C(=O)OC)CC4)c3n2)cc1")
108
>>> endpoint_result("COc1ccc(-c2ccc3c(N4CCOCC4)nc(N4C[C@@H](C)O[C@@H](C)C4)nc3n2)cc1CO")
92
>>> endpoint_result("CCC(=O)N1CCN(c2ccc(-n3c(=O)ccc4cnc5ccc(-c6cnc7ccccc7c6)cc5c43)cc2C(F)(F)F)CC1")
90
>>> endpoint_result("CC(C)n1nc(-c2cc3cc(O)ccc3[nH]2)c2c(N)ncnc21")
88

* * *

As shown below, each of these compounds has a reported kinase still bound, per cent of control value.
molecular target: MKNK2 (human) (UniProt Q9HBH9); assay: KINOMEscan competition binding; conditions: compound 10.0 µM
Sequence (Q9HBH9 whole entry, looked up): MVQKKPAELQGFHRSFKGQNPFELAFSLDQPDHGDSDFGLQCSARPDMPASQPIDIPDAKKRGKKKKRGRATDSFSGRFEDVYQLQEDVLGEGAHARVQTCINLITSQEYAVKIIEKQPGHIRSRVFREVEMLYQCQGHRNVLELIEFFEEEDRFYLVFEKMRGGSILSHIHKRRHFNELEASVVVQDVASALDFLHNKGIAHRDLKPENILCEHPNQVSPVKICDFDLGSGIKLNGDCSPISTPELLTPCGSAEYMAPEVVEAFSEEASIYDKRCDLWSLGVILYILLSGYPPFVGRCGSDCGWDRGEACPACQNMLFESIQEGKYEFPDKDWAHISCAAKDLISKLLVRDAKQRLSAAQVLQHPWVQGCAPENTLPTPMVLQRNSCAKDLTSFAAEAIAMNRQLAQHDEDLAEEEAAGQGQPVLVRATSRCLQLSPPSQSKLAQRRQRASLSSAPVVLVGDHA
reported.metric: kinase still bound, per cent of control (%)

>>> endpoint_result("COC(=O)Nc1ccc(-c2nc(N3CCOCC3)c3cnn(C4CCN(C(=O)OC)CC4)c3n2)cc1")
40
>>> endpoint_result("CC(C)n1nc(-c2cc3cc(O)ccc3[nH]2)c2c(N)ncnc21")
4.5
>>> endpoint_result("COc1ccc(-c2ccc3c(N4CCOCC4)nc(N4C[C@@H](C)O[C@@H](C)C4)nc3n2)cc1CO")
75
>>> endpoint_result("CCC(=O)N1CCN(c2ccc(-n3c(=O)ccc4cnc5ccc(-c6cnc7ccccc7c6)cc5c43)cc2C(F)(F)F)CC1")
54

* * *

biological target: CHEK2 (human) (UniProt O96017); experiment: KINOMEscan competition binding; settings: compound 10.0 µM
Sequence (O96017 whole entry, looked up): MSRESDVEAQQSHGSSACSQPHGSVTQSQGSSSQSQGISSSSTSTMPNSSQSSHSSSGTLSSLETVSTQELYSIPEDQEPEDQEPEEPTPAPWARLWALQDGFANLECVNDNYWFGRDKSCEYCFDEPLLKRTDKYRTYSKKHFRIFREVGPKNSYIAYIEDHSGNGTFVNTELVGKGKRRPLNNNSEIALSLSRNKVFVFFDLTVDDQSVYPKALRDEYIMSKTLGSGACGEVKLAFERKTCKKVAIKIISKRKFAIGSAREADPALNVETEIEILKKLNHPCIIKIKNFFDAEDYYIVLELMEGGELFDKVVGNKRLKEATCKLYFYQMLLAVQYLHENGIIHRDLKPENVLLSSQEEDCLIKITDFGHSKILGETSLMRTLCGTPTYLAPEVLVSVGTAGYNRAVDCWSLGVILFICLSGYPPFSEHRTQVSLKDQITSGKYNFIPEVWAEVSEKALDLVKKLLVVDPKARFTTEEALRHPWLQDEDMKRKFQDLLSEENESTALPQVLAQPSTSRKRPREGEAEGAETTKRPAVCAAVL
As shown below, each of these molecules has a reported kinase still bound, per cent of control value.
reported.metric: kinase still bound, per cent of control (%)

>>> endpoint_result("COc1ccc(-c2ccc3c(N4CCOCC4)nc(N4C[C@@H](C)O[C@@H](C)C4)nc3n2)cc1CO")
100
>>> endpoint_result("CC(C)n1nc(-c2cc3cc(O)ccc3[nH]2)c2c(N)ncnc21")
19
>>> endpoint_result("CCC(=O)N1CCN(c2ccc(-n3c(=O)ccc4cnc5ccc(-c6cnc7ccccc7c6)cc5c43)cc2C(F)(F)F)CC1")
100
>>> endpoint_result("COC(=O)Nc1ccc(-c2nc(N3CCOCC3)c3cnn(C4CCN(C(=O)OC)CC4)c3n2)cc1")
100

* * *

target: PTK2B (human) (UniProt Q14289); assay: KINOMEscan competition binding; conditions: compound 10.0 µM
Sequence (Q14289 whole entry, looked up): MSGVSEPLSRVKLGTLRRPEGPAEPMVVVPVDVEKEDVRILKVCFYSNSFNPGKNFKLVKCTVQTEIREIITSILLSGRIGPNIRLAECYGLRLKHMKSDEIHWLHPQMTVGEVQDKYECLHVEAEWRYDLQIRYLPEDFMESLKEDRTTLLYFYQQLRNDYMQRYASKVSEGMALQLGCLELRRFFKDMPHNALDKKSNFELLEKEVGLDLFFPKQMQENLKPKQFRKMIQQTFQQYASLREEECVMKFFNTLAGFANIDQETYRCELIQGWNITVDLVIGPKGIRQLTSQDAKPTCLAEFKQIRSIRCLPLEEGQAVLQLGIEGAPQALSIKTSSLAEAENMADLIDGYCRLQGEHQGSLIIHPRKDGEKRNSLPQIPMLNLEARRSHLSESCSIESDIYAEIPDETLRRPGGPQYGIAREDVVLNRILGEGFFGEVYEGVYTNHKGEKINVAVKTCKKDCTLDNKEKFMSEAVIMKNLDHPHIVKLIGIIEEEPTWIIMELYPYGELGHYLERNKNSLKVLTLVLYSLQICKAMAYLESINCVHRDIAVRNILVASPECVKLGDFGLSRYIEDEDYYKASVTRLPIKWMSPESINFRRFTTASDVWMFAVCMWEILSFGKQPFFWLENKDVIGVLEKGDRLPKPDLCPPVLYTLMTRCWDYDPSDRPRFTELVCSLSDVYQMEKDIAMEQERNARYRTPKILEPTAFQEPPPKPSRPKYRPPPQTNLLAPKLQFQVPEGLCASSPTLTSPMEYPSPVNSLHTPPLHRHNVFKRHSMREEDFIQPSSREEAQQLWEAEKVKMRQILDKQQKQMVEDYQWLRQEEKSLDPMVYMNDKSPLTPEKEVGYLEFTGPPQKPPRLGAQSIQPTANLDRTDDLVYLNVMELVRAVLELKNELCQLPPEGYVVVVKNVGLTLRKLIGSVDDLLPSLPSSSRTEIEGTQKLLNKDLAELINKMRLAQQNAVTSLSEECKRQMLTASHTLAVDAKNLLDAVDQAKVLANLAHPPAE
reported.metric: kinase still bound, per cent of control (%)

>>> endpoint_result("CC(C)n1nc(-c2cc3cc(O)ccc3[nH]2)c2c(N)ncnc21")
100
>>> endpoint_result("CCC(=O)N1CCN(c2ccc(-n3c(=O)ccc4cnc5ccc(-c6cnc7ccccc7c6)cc5c43)cc2C(F)(F)F)CC1")
100
>>> endpoint_result("COc1ccc(-c2ccc3c(N4CCOCC4)nc(N4C[C@@H](C)O[C@@H](C)C4)nc3n2)cc1CO")
84
>>> endpoint_result("COC(=O)Nc1ccc(-c2nc(N3CCOCC3)c3cnn(C4CCN(C(=O)OC)CC4)c3n2)cc1")
92
